Stated Conditions: in ethanol, 303.15 K
Measured Endpoint: solubility (mole fraction)
The reply should be a number, written without any unit.

The compound COc1cc([N+](=O)[O-])ccc1N showed solubility (mole fraction) equal to 0.00636

---

Stated Conditions: in ethylene glycol, 288.15 K
Measured Endpoint: solubility (mole fraction)
The reply should be a number, written without any unit.

The compound COc1cc([N+](=O)[O-])ccc1N showed solubility (mole fraction) equal to 0.00243

---

Stated Conditions: in ethyl acetate, 303.15 K
Measured Endpoint: solubility (mole fraction)
The reply should be a number, written without any unit.

The molecule COc1cc([N+](=O)[O-])ccc1N showed solubility (mole fraction) equal to 0.0486
